Data provenance is patent US11021493B2.

# Target or system: BACE1 (Homo sapiens (Human), UniProt P56817)
# Sequence (P56817 46-501): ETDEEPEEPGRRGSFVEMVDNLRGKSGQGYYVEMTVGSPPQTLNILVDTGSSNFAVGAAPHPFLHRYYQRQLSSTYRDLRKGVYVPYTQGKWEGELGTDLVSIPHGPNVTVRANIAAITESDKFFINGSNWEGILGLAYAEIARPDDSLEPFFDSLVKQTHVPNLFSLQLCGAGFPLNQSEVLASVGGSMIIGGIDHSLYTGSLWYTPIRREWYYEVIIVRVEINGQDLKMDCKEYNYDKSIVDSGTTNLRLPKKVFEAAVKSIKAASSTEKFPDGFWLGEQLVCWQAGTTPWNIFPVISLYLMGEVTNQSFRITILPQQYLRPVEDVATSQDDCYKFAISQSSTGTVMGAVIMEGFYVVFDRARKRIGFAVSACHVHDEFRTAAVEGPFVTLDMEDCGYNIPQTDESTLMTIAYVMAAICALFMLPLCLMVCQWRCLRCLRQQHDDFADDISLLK
# Assay details: In vitro enzymatic BACE1 FRET assay
# Type: biochemical
# Conditions: read-out: BACE1 Enzyme IC50
Lab note: compare IC50 with 9 nM, writing Yes if less and No if equal or more.

molecular_string=CN1C(N)=N[C@](C)(c2cc(/C=C(\F)c3cnc(OCC4CC4)cn3)ccc2F)CS1(=O)=O target_or_system="BACE1 (Homo sapiens (Human), UniProt P56817)" assigned_class=No
molecular_string=CN1C(N)=N[C@](C)(c2cc(/C=C(\F)c3cnc(OCc4ncco4)cn3)ccc2F)CS1(=O)=O target_or_system="BACE1 (Homo sapiens (Human), UniProt P56817)" assigned_class=Yes
molecular_string=CN1C(N)=N[C@](C)(c2cc(/C=C(\F)c3cc4c(cn3)OCO4)ccc2F)CS1(=O)=O target_or_system="BACE1 (Homo sapiens (Human), UniProt P56817)" assigned_class=No
molecular_string=C[C@]1(c2cc(/C=C(\F)c3cnc(OCC(F)(F)C(F)F)cn3)ccc2F)N=C(N)[C@@]2(CF)CC[C@@H]1S2(=O)=O target_or_system="BACE1 (Homo sapiens (Human), UniProt P56817)" assigned_class=No
molecular_string=CN1C(N)=N[C@](C)(c2cc(/C=C(\F)c3cnc(OCC#CCO)cn3)ccc2F)CS1(=O)=O target_or_system="BACE1 (Homo sapiens (Human), UniProt P56817)" assigned_class=No
molecular_string=Cc1cc(C#N)cnc1/C(F)=C/c1ccc(F)c([C@]2(C)CS(=O)(=O)C(C)(C)C(N)=N2)c1 target_or_system="BACE1 (Homo sapiens (Human), UniProt P56817)" assigned_class=Yes
